# System: Leishmania donovani
# protocol text: Leishmania intramacrophage assay
# Assay type: functional, organism-based
# Design: scale not given: in the data most compounds retested in dose-response had high values
# run parameters: 30 µM; 30.03 µM
The campaign covered roughly 69,000 compounds. About 1,000 (1.4%) showed an effect of 50% or more. What follows is part of a selection rich in strong results, with near analogues and random picks from the rest.
assay endpoint: Percent Effect (%)
Numbers only; they are read as %.

What value of Percent Effect has been reported for the following molecule? CC1=N[C@@]2(CC[C@@H]3CN(Cc4ccccc4F)C[C@@H]32)C(=O)N1CC1CC1.O=C(O)C(F)(F)F
16.75

Follow-up item: CCc1ccc(CN2C[C@@H]3OCCN(c4ccnc(N(C)C)n4)[C@@H]3C2)o1.O=C(O)C(F)(F)F
55.16

Follow-up item: Cc1cc(C)c(CNC(=O)N2CCN(c3ncccn3)CC2)c(=O)[nH]1
-5.034

Follow-up item: CC(C)c1ccc(OCn2ccc(C(=O)N3CCCC3)n2)cc1
59.3

Follow-up item: COc1cccc(CNC(CN2CCN(C)CC2)c2ccccc2)c1 (stereo unspecified)
76.19

Follow-up item: CCNc1cc2c(nn1)CCN(C(=O)c1ccc3cc[nH]c3c1)C2
18.46

Follow-up item: O=C(NCC(=O)N1CCCCC1)c1ccoc1
-16.27

Follow-up item: Cc1nccn1CCC1CCCCN1Cc1ccncc1 (stereo unspecified)
14.55

Follow-up item: O=C(O)C(F)(F)F.O=C(O)C(F)(F)F.c1ccc(CN2CCc3nnc(CN4CCCCC4)n3CC2)nc1
-31.83

Follow-up item: CS(=O)(=O)c1ccc(CNCC2CCN(CCO)CC2)cc1
7.016

Follow-up item: N#Cc1ccc(CNCC2CCN(CCO)CC2)cc1
18.87

Follow-up item: CS(=O)(=O)N1CCC[C@]2(C[C@@H](Oc3ncccc3F)CO2)C1.O=C(O)C(F)(F)F
22.25

Follow-up item: COCCO[C@H]1CCN(C(=O)c2ccc[nH]2)[C@H]1Cc1ccncc1
17.48

Follow-up item: O=C(O)C(F)(F)F.O=C(c1ccc[nH]1)N1CCn2cc(CN3CCCC3)nc2C1
-3.456

Follow-up item: CNC(=O)[C@@H]1C[C@H]2CN(Cc3nccs3)C[C@H]2N1C.O=C(O)C(F)(F)F.O=C(O)C(F)(F)F
9.102

Follow-up item: Cc1cccc(CNC(CN2CCN(C)CC2)c2ccccc2)c1 (stereo unspecified)
98.99

Follow-up item: CCO[C@@H]1CCN(C(=O)c2cscn2)[C@@H]1Cc1cnn(C)c1
-2.934

Follow-up item: O=C1CC2(CCN(CC3CCOC3)CC2)CN1Cc1cc(F)cc(F)c1 (stereo unspecified)
41.14

Follow-up item: Cc1ccc(C(=O)NC(C)CN2CCCC2=O)c(=O)[nH]1 (stereo unspecified)
6.193

Follow-up item: O=C(O)C(F)(F)F.O=S(=O)(C1CC1)N1CCOCC2(CCN(c3ccccn3)C2)C1 (stereo unspecified)
-13.08

Follow-up item: O=C(NCc1cc[nH]n1)NCC(O)c1ccc(F)cc1F (stereo unspecified)
9.759

* * *

Field: Percent Effect. Provide a value for each of the compounds that follow.
# Tested on: Leishmania donovani
# protocol text: Leishmania intramacrophage assay
# Assay type: functional, organism-based
# Set-up: scale not given: in the data most compounds retested in dose-response had high values
# run parameters: 30.3 µM; […]
Screen size: about 69,000 compounds; about 1,000 (1.4%) showed an effect of 50% or more. The sample as a whole holds a higher share of strong results than the screen did.
Numbers only; they are read as %.

What value of Percent Effect has been reported for the following compound? O=C(Nc1cc(Cl)ccc1Cl)NC1CCN(C2CCOC2)CC1 (stereo unspecified)
-19.47

Follow-up item: COc1cccc(OC)c1C(=O)N1C[C@@H](CN(C)C)[C@@H](CO)C1
-22.82

Follow-up item: Cn1ccnc1CN1CCC2(CC1)CCN(Cc1ccoc1)C2.O=C(O)C(F)(F)F.O=C(O)C(F)(F)F
10.21

Follow-up item: O=C(O)C(F)(F)F.O=C(O)C(F)(F)F.c1cncc(-c2ccc3c(c2)CCC32CCN(Cc3ccco3)CC2)c1
59.2

Follow-up item: CCN(Cc1c(F)cccc1Cl)c1cc(C2CCNCC2)nc(C)n1
100.4

Follow-up item: Cc1ccc(CN2CCOC3(COCCN(Cc4ccncc4)C3)C2)o1.O=C(O)C(F)(F)F.O=C(O)C(F)(F)F.O=C(O)C(F)(F)F (stereo unspecified)
5.942

Follow-up item: CN(C)CC(=O)N1CCC2(CCc3cc(-c4cccnc4)ccc32)CC1.O=C(O)C(F)(F)F.O=C(O)C(F)(F)F
37.66

Follow-up item: CCN(Cc1ccncc1)c1cc(C2CCNCC2)nc(C)n1
4.844

Follow-up item: Cc1c(CN(C)c2cc(C3CCCNC3)ncn2)[nH]c2ccccc12 (stereo unspecified)
16.72

Follow-up item: CCn1nc(C)c2nnn(CC(=O)Nc3ccc(C)c(C)c3)c(=O)c21
-87.23

Follow-up item: CNC(=O)CNC(=O)Nc1ccc(Br)c(F)c1
-0.911

Follow-up item: COc1ccc(CN2C[C@@H](CN(C)C)[C@@H](CO)C2)cc1CN1CCCC1
7.971

Follow-up item: Cc1nc(C2CCNCC2)cc(N(C)Cc2cc3cc(F)ccc3[nH]2)n1
78.55

Follow-up item: CCOC(=O)CN1CCC2(CC1)CC(=O)c1ccc3ccccc3c1O2
52.56

Follow-up item: O=C(O)C(F)(F)F.O=C(O)C(F)(F)F.c1cncc(-c2ccc3c(c2)CCC32CCN(Cc3nccs3)CC2)c1
20.15

Follow-up item: CN(Cc1cc2cc(F)ccc2[nH]1)c1cc(C2CCCNC2)ncn1 (stereo unspecified)
78.22

Follow-up item: COc1ccc(CN2C[C@@H](CN(C)CCO)[C@@H](CO)C2)cc1Cl
33.72

Follow-up item: CCN(Cc1ccncc1)c1cc(C2CCCNC2)nc(C)n1 (stereo unspecified)
-18.58

Follow-up item: NC(=O)CN1CCC2(CC1)CC(=O)c1ccc3ccccc3c1O2
11.62

Follow-up item: CN(C)C[C@@H]1CN(Cc2ccccc2C#N)C[C@@H]1CO
-11.66

Follow-up item: Cc1ccc(CN2CCN(Cc3ccncc3)CC2=O)cc1
-11.56
